- Tested on: NEK11
- Test Conditions: concentration: 1 μM, replicates: in singlicate; n = 1
Attribute Measured: %Inh (%)
A number alone suffices; assume %.

Enquiry: For NEK11, provide %Inh of CCc1nc(-c2cccc(C)c2)c(-c2ccncc2)s1 please.
Return: 0

Enquiry: Request: %Inh, test system NEK11, entry Nc1nccc2scc(-c3ccc4c(c3)CCN4C(=O)Cc3ccccc3)c12
Return: 0

Enquiry: Provide value of %Inh for this record tested with NEK11: O=C(Nc1n[nH]c2cc(-c3ccccc3F)ccc12)C1CC1
Return: 12

Enquiry: Query the reported %Inh for NEK11; item: CCC(=O)c1c(-c2ccccc2)c2cc(Cl)ccc2c(=O)n1Cc1cc(C(=O)NC2CC2)n(C)n1
Return: 0

Enquiry: What value of %Inh on NEK11 does CCc1ccc(-c2ccc3c(c2)-c2nn(C)cc2S(=O)(=O)N3C)cc1 have?
Return: 0

Enquiry: Any idea what %Inh came out for Cc1c(Cn2c(C)nn3c(=O)cc(N4CCO[C@H](C)C4)nc23)cccc1C(F)(F)F on NEK11?
Return: 0

Enquiry: I'm curious: which %Inh was measured for Nc1n[nH]c2nnc(-c3ccccc3)c(-c3ccccc3)c12 tested on NEK11?;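 further: KINOMEscan kinase panel screen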
Return: 5

Enquiry: Recall the recorded %Inh for Cl.c1ccc(Cn2cnc3cc(Nc4ncnc5ccccc45)ccc32)cc1 with NEK11 and state it.
Return: 0

Enquiry: Record Cc1ccccc1COc1cc(-n2cnc3cc(Cl)ccc32)sc1C(N)=O : what is its %Inh with NEK11?
Return: 0
